Recorded values, source ChEMBL document CHEMBL1208732.

Test: Metabolic stability in human liver microsomes assessed as compound turn over after 30 mins
Assay type: ADME, Microsome
Conditions: read-out: Activity
Measured property: metabolised at 0.5 h (%)

As a guide, the following entries are already answered.
Request the reported metabolised at 0.5 h associated with C[C@@H]1CN(C(=O)c2ccccc2)CCN1c1nnc(-c2ccncc2)c2ccccc12
11

Request the reported metabolised at 0.5 h associated with C[C@@H]1CN(C(=O)c2ccccc2)CCN1c1nnc(-c2cccnc2)c2ccccc12
19

Request the reported metabolised at 0.5 h associated with C[C@@H]1CN(C(=O)c2ccccc2)CCN1c1nnc(-c2ccc(CC(N)=O)cc2)c2ccccc12
10

I = C[C@@H]1CN(C(=O)c2ccccc2)CCN1c1nnc(-c2ccccc2)c2cnccc12
II = C[C@@H]1CN(C(=O)c2ccccc2)CCN1c1nnc(-c2ccccc2)c2ncccc12
Given the listed items, does I or II have the lesser reported metabolised at 0.5 h? Identify your pick by its label.
II
(II: 13%, I: 30%)

----------
Molecular target: UniProt P56726
Sequence (P56726 whole entry): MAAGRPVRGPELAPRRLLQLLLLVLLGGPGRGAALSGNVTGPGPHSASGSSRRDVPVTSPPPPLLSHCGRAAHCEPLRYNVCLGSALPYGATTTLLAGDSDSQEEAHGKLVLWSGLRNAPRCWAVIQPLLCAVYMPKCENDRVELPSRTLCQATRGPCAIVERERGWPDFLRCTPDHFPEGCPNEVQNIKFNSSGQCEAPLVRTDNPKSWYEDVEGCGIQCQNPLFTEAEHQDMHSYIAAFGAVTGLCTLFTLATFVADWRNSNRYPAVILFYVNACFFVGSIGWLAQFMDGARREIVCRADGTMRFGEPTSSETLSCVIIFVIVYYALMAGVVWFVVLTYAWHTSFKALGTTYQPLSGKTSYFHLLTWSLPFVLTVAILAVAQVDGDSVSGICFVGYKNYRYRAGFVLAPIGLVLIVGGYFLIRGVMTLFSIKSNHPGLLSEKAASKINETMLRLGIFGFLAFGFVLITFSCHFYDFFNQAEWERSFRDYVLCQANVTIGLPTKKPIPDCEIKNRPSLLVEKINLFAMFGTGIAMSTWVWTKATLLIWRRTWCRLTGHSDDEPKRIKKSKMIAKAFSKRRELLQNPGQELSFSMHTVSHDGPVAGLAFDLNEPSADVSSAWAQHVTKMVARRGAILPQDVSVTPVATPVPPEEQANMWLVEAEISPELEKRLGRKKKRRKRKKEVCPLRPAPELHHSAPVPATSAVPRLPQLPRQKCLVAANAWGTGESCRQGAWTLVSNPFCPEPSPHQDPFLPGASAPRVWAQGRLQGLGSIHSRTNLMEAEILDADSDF
Assay: Antagonist activity at mouse cloned Smo receptor expressed in NIH-3T3 cells co expressing Gli1 binding site after 15 hrs by luciferase reporter gene assay
Measured property: IC50 (nM)

1 = C[C@@H]1CN(C(=O)c2ccccc2)CCN1c1nnc(-c2ccc(C(F)(F)F)cc2)c2ccncc12
2 = C[C@@H]1CN(C(=O)c2ccccc2)CCN1c1nnc(-c2ccccc2)c2ccncc12
Higher IC50 between 1 and 2 ? Identify your pick by its label.
2

----------
Experiment: Oral bioavailability in rat at 2 mg/kg
Format: ADME, organism-based
Conditions: in vivo
Measured property: bioavailability (%)

Request the reported bioavailability associated with C[C@@H]1CN(C(=O)c2ccccc2)CCN1c1nnc(-c2ccc(C(F)(F)F)cc2)c2ccncc12
73

A = C[C@@H]1CN(C(=O)c2ccccc2)CCN1c1nnc(-c2ccccc2)c2ccccc12
B = C[C@@H]1CN(C(=O)c2ccccc2)CCN1c1nnc(-c2ccccc2)c2ccncc12
C = C[C@@H]1CN(C(=O)c2ccccc2)CCN1c1nnc(-c2ccc(CC(N)=O)cc2)c2ccccc12
rank_up(items): orders items by reported bioavailability in ascending numerical order. Answer with the labels in sequence, matching the requested order.
A, C, B

----------
Experiment: Clearance in rat at 0.5 mg/kg, iv
Type: ADME, organism-based
Parameters: dose 0.5 mg/kg, route intravenous
Details: in vivo
Measured property: clearance (mL/min/kg)

Request the reported clearance associated with C[C@@H]1CN(C(=O)c2ccccc2)CCN1c1nnc(-c2ccc(C(F)(F)F)cc2)c2ccncc12
7.67

P = C[C@@H]1CN(C(=O)c2ccccc2)CCN1c1nnc(-c2ccccc2)c2ccccc12
Q = C[C@@H]1CN(C(=O)c2ccccc2)CCN1c1nnc(-c2ccc(CC(N)=O)cc2)c2ccccc12
R = C[C@@H]1CN(C(=O)c2ccccc2)CCN1c1nnc(-c2ccc(CO)cc2)c2ccccc12
S = C[C@@H]1CN(C(=O)c2ccccc2)CCN1c1nnc(-c2ccccc2)c2ccncc12
rank_up(items): orders items by reported clearance in ascending numerical order. Answer with the labels in sequence, matching the requested order.
P, S, Q, R
(P: 4.67 mL/min/kg, S: 7.5 mL/min/kg, Q: 18.3 mL/min/kg, R: 95 mL/min/kg)

----------
Assay: Metabolic stability in human liver microsomes assessed as compound turn over after 30 mins
Format: ADME, Microsome
Conditions: read-out: Activity
Measured property: metabolised at 0.5 h (%)

I = C[C@@H]1CN(C(=O)c2ccccc2)CCN1c1nnc(-c2ccc(C(F)(F)F)cc2)c2ccncc12
II = C[C@@H]1CN(C(=O)c2ccccc2)CCN1c1nnc(-c2ccccc2)c2cccnc12
III = C[C@@H]1CN(C(=O)c2ccccc2)CCN1c1nnc(-c2ccc(N3CCOCC3)cc2)c2ccccc12
Thanks in advance: please rank these 3 entries by metabolised at 0.5 h, highest to lowest. Answer with the labels in sequence, matching the requested order.
II, III, I

a = C[C@@H]1CN(C(=O)c2ccccc2)CCN1c1nnc(-c2ccccc2)c2ccncc12
b = C[C@@H]1CN(C(=O)c2ccccc2)CCN1c1nnc(-n2ccc3ccccc32)c2ccccc12
Higher metabolised at 0.5 h between a and b ? Identify your pick by its label.
b
(b: 55%, a: 13%)

P = C[C@@H]1CN(C(=O)c2ccccc2)CCN1c1nnc(-n2cccc2)c2ccccc12
Q = C[C@@H]1CN(C(=O)c2ccccc2)CCN1c1nnc(-c2ccccn2)c2ccccc12
Higher metabolised at 0.5 h between P and Q ? Identify your pick by its label.
P
(P: 54%, Q: 12%)
